molecular target: VLA-4 (α4β1) (Homo sapiens, UniProt P05556+P13612); construct: Jurkat cells express high levels of VLA-4 on their membrane surface; host or cells: Jurkat Clone E6-1; test: VLA-4 (α4β1) binding assay: Jurkat cell adhesion to VCAM-1-coated plates; type: cell-based; conditions: control compound in the Jurkat/VCAM-1 adhesion assay; read-out: IC50
Sequence (P13612 34-1032): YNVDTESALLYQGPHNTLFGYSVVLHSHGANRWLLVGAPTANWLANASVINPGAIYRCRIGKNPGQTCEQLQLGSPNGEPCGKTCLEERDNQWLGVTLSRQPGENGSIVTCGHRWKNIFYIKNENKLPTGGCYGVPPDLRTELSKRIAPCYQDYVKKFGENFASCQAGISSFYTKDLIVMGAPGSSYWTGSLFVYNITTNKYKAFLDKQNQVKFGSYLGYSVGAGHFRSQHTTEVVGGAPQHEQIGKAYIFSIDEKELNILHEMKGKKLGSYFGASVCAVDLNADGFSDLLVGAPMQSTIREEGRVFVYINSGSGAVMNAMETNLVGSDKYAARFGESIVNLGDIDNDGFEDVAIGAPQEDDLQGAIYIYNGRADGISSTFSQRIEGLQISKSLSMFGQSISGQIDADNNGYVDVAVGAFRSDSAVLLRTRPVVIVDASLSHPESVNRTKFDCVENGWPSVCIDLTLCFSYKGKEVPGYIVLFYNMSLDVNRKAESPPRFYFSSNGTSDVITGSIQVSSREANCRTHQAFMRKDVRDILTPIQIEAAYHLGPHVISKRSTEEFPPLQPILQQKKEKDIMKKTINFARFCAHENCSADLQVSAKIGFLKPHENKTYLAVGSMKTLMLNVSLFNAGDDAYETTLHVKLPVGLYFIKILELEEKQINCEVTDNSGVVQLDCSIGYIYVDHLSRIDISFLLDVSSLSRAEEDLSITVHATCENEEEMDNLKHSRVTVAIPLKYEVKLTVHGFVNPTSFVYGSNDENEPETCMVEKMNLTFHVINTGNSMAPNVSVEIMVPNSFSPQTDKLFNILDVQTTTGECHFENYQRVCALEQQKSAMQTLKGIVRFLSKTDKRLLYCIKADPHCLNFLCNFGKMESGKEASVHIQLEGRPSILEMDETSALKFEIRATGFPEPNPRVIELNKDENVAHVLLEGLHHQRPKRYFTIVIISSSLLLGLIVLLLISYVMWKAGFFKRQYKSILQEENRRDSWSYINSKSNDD
Sequence (P05556 21-798): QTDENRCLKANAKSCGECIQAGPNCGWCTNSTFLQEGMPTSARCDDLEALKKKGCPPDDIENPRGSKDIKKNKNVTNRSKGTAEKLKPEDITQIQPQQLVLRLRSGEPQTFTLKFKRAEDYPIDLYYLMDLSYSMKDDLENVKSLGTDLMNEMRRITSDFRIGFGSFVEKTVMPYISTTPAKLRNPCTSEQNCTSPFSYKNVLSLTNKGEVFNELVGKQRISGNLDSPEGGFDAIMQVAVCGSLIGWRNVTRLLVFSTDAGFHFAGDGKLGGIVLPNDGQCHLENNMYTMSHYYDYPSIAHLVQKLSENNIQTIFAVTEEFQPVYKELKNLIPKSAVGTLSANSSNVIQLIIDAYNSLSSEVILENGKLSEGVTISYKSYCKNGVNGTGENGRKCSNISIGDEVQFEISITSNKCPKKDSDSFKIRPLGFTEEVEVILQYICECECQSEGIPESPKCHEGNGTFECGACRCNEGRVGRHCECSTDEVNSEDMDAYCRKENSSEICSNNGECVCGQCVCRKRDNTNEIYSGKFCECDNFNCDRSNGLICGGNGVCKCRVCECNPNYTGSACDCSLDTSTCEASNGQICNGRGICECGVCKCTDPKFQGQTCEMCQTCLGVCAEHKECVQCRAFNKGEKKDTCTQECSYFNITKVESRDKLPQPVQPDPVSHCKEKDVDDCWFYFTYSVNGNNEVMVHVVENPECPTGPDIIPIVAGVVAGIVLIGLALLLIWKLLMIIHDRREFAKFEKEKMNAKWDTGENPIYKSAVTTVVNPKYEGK

compound: Cc1cccc(Cl)c1C(=O)NC(Cc1ccc(NC(=O)c2c(Cl)cccc2Cl)cc1)C(=O)O (stereo not shown) [Control (27), reference compound]
measurementTarget: VLA-4 (α4β1) (Homo sapiens, UniProt P05556+P13612)
IC50: ~12 nM
